Target: RSV prefusion F (preF), subtype A (respiratory syncytial virus, subtype A, UniProt P03420 26-513)
Assay: BLI, IgG
Quantity kind: log10 of Kd (log10 of the value in nM)
Quick note: numbers are log10 of Kd, with nM as the unit.

Binder | log10 of Kd
ADI-21026 (antibody, V domains shown) VH: QVQLVQSGPGLVKPSQTLSLTCTVSGVSISSGGFYWSWIRQHPGKGLEWIGHIYYSRSTYYNPSLKSRVTMSLNMSKNQFSLRLSSVTAADTAVYYCARERREWLHGELDYWGQGTTVTVSS VL: DIQMTQSPDSLAVSLGEGATINCKSSQSVLDSSKNKNYLAWYQQRPGQPPKLLISWASTRESGVPDRFSGSGSGTDFTLTISSLQAEDVAVYSCQQYFSPPATFGQGTKLEIK | 0.80

Provide reported log10 of Kd for each item, in the same order as listed.
1. ADI-20992 (antibody, V domains shown) VH: EVQLVESGGGLVQPGGSLRLSCVVSGFTFKSYWMTWVRQAPGKGLEWVANIKEDGSEKYYVDSVKGRFTISRDNARNSLFLQMNSLRADDTAVYYCARNLEVSNEFYVVTDNYYLMDVWGQGTTVTVSS VL: DIQLTQSPSSLSASVGDRVTITCRASQSISFFLNWYRQKPGKAPKLLIYAASTLQSGVPSRFSGSGSGTDFTLTISSLQPEDFASYYCQQSYSTPHTFGQGTKVEIK
2. ADI-21014 (antibody, V domains shown) VH: QVQLQESGPGLVKPSETLSLICTVSGGSISNYYWSWIRQPPGKGLEWIGYVWFGTTKYNPSLKNRVTISVDTGKNQVSLKVNSVTAADTAIYYCARDSSIWYRGAFEIWGQGTTVTVSS VL: DIRLTQSPSSLSASVGDRVTITCQASQDISNHLNWYQQRPGKAPELLIYDASTLETGGPSRFSGSGSGTDFTLTISSLQPEDFADYYCQQYDNLPVTFGGGTKVDIK
3. ADI-21046 (antibody, V domains shown) VH: EVQLVESGAEAKKPGESLRISCTVSGYSFSKYWVGWVRQTPGKGLEWMGIIDPTDSDTRYSPSFQGQVTISVDNSINTAYLQWSSLKASDTAIYYCARRGQAKCVGNCPRDFMDVWGKGTTVTVSS VL: SYVLTQPPSVSGAPGQRVTISCAGSSSNIGAGYEVHWYQQLPGTAPKLLIYANRNRPSGVPDRFSGSRSGTSASLAISGLQAEDEADYYCQSYDNNLSGSWVFGGGTKLTVL
4. ADI-14393 (antibody, V domains shown, also called Ab 60) VH: QVQLVESGGGLVKPGGSLRLSCAASGFSFTGFYMNWVRQAPGKGLEWVSSISSSSTYKNYADSLQGRFTISRDNARSSLYLQMNSLRAEDTAVYYCARTRTEYTYGYYHDFWGQGTLVTVSS VL: QPVLTQPPSVSGAPGQRVTISCTGSSSNIGAGYDVHWYQQVPGTAPKLLIYNNNNRPSGVPDRFSGSKSGTSASLAITGLQAEDEADYYCQSYDSRLSGVFGGGTKLTVL
5. ADI-14595 (antibody, V domains shown) VH: EVQLLESGGGLVQPGGSLRLSCAASGFTFSIYSMNWVRQAPGKGLEWISYISRSGSTIFYADSVKGRFTISRDDAKNSLFLQMTSLRDADTAVYYCARVDCSNNKCYDYWGQGTLVTVSS VL: DIQLTQSPATLSLSPGERATLSCRASQSISSFLAWYQQKPGQAPRLLIYDASKRATGTPARFSGGGSGRDFTLTISSLEPEDFAVYYCQQRSSWPLYTFGQGTKVEIK
6. ADI-21044 (antibody, V domains shown) VH: QVQLVQSGAELKKPGESLKISCKTSGYTFANYWIGWVRQMPGKGLEWMGIIYPGDSDTRYSPSFQGQVTFSADKSINSAYLQWHSLKASDSAIYYCARRFSPDYSDGAAPPTLSDAFDVWGQGTTVTVSS VL: DIVMTQSPSSLSASVGDRVTITCRASQNINIYLNWYQQKPGKAPKLLIYAASTLQSGVPSRFSGSGSATDFTLTISSLQPEDFATYYCQQSYRTPNDFGRGTKVDIK
7. ADI-14418 (antibody, V domains shown, also called Ab 84) VH: QVQLVQSGAEVKKPGSSVKVSCKASGGTFTNYNINWVRQAPGQGLQWMGRISPTFAIANYAQKFQGRVTITADKSTSTAYMELSSLRSEDTAVYYCARAPHSGYDLALDYWGQGTLVTVSS VL: DIQMTQSPSTLSASVGDRVTITCRASQSISSWLAWYQQKPGKAPKLLIYEASSLQSGVPSRFSGSGSGTEFTLTITSLQPDDFATYYCQQYNVYPWTFGQGTKVDIK
8. ADI-14579 (antibody, V domains shown) VH: QVQLVQSGAEVKKPGESLKISCKVSGYSFTSYWIGWVRQMPGKGLEWMGIIYPGDSDTRYSPSFQGQVTISADKSITTAYLQWSSLKASDTAMYYCARPAHSSSWYGAFDLWGQGTTVTVSS VL: DIQMTQSPSSLSASVGDRVTITCRASQGISNYLAWYQQKPGKVPKLLIYAASTLQSGVPSRFSGSGSGTDFTLTISSLQPEDVATYYCQKYNSAPLTFGGGTKVEIK

**A:**
1: -0.02; 2: -0.39; 3: 0.22; 4: -0.51; 5: 0.34; 6: 0.65; 7: 0.10; 8: 0.88

**Q:** Returns the measured log10 of Kd for the input binder. Input: ADI-14405 (antibody, V domains shown, also called Ab 71) VH: QVQLVQSGTEVKKPGASVKVSCKASGYTFTNYDISWVRQAPGQGLEWMGWISGSTGNTIYAQNLQGRLTMTTDTSTSTAYMELRSLRSDDTAIYYCARDNVGYASGNYFDYWGQGTLVTVSS VL: SYVLTQPPSVSVAPGKTARIPCGGNNIGSKSVHWYQQRPGQAPVLVIYYDSVRPSGIPERFSGSNSGNTATLTISTVEAGDEADFYCQVWDSSRDHEVFGGGTKLTVL
**A:** -0.85
